Below, each of the compounds is paired with its reported growth value.
# System: SK-MEL-5 melanoma
# EXPERIMENT SUMMARY: NCI-60 one-dose screen, 48 h (100 = growth as untreated, 0 = no growth, -100 = all killed)
# STUDY CONDITIONS: 10 µM
The panel holds about 83,000 compounds, 20% with a hit somewhere; the sample as a whole holds those more often. The source made the active and inactive calls. How the source made its calls: active means growth percent below 10; inactive means the rest.
ENDPOINT: growth

INSERT INTO measurements (compound, endpoint, result) VALUES
  ('c1ccc(CSc2nnc3c4c5c(sc4nc(-c4cccnc4)n23)CCCCCC5)cc1', 'growth', '-46% (active)'),
  ('CCN1Cc2c(/C=C/c3ccccc3)nc3ccc(OC)cc3c2N(c2cccc(Cl)c2)C1', 'growth', '20.6% (inactive)'),
  ('N=C(N)c1ccc(-c2ccc(-c3ccccc3)o2)nc1', 'growth', '86.1% (inactive)'),
  ('O=C1/C(=C\c2ccc(Br)cc2)CN(C(=O)c2ccccc2F)C/C1=C\c1ccc(Br)cc1', 'growth', '30.4% (inactive)'),
  ('O=C(Nc1ccc(CO)cc1)c1ccccc1Nc1ccnc(C(F)(F)F)c1', 'growth', '107% (inactive)'),
  ('CCN(CC)Cc1cc(Nc2ccnc3cc(Cl)ccc23)ccc1OC', 'growth', '91.6% (inactive)'),
  ('CC(C)=CCc1cc(O)cc2c1OC(C=C(C)C)C1=C2C(=O)C2=C(NCCS2(=O)=O)C1=O (stereo unspecified)', 'growth', '-96.7% (active)'),
  ('Cc1cccc2c(NCCN(C)C)c3cccc(C(=O)NCCN(C)C)c3nc12', 'growth', '3.71% (active)'),
  ('O=C1/C(=C\c2ccc(Cl)cc2)CN(C(=S)Nc2ccccc2)C/C1=C\c1ccc(Cl)cc1', 'growth', '-73% (active)'),
  ('O=C(Nc1ccncc1)C(=O)c1cn(S(=O)(=O)c2cc(Cl)cc(Cl)c2)c2ccccc12', 'growth', '62.7% (inactive)'),
  ('CN(C)CCN1C(=O)c2cccc3c(-c4ccc5ncn(C6CCCCC6)c5c4)ccc(c23)C1=O', 'growth', '21.4% (inactive)'),
  ('c1ccc2c(c1)oc1c3c(ccc12)NCCC3', 'growth', '94.1% (inactive)'),
  ('O=C(NN1C(=O)CSC1c1ccc(Cl)cc1)c1cccnc1 (stereo unspecified)', 'growth', '102% (inactive)'),
  ('Cc1ccc(Nc2cc(C)nc(NCCCNc3ccnc4cc(Cl)ccc34)n2)cc1', 'growth', '-100% (active)'),
  ('COc1cc2cc3c(nc2cc1OC)CCN3Cc1ccc(NC(=O)Nc2ccc(F)cc2F)cc1', 'growth', '86.1% (inactive)'),
  ('CCN(CCCCCCN1CC(=O)N(CCCCCCN(CC)Cc2ccccc2OC)CC1=O)Cc1ccccc1OC', 'growth', '90.9% (inactive)'),
  ('C=C(C(=O)c1ccccc1)C(NC(C)(C)C)c1ccccc1 (stereo unspecified)', 'growth', '-25.6% (active)'),
  ('O=C1N=NC2=C1c1c3ccccc3c(O)n1CC2', 'growth', '112% (inactive)'),
  ('O=S(=O)(NCCNc1nccc(-c2c(-c3ccc(F)cc3)nc3sccn23)n1)c1ccc2ccccc2c1', 'growth', '69.2% (inactive)'),
  ('Cc1cc(Nc2ccc(Cl)cc2)nc(NCCCNc2ccnc3cc(Cl)ccc23)n1', 'growth', '-99.8% (active)'),
  ('CC(=O)[C@H]1CC[C@H]2[C@@H]3CCC4=CC(=O)C=C[C@]4(C)[C@H]3CC[C@]12C', 'growth', '82.5% (inactive)'),
  ('O=C(Nc1nc(-c2ccccc2Cl)cs1)c1cc(-c2ccc(Cl)cc2)nc2ccc(Cl)cc12', 'growth', '-25.4% (active)'),
  ('CCCCN(CCCC)c1cc(C(=O)CCCCCN)c2ccccc2n1', 'growth', '98.3% (inactive)'),
  ('COc1ccc(-c2nc3ncccn3c2-c2nnc(-c3ccsc3C)o2)cc1', 'growth', '81% (inactive)'),
  ('N=c1c2c(-c3ccccc3)c(-c3ccccc3)n(Cc3ccccc3)c2ncn1CCCO', 'growth', '-4.56% (active)'),
  ('COc1ccc2c(c1)sc1nc(-c3ccccc3)c(-c3ccc(O)c(OC)c3)n12', 'growth', '55.5% (inactive)'),
  ('COc1cc(-c2cc(C(=O)N3CCN(C(=O)c4ccccc4NCc4ccco4)CC3)nc3cc(-c4ccccc4)nn23)cc(OC)c1OC', 'growth', '3.81% (active)'),
  ('CC(=O)N(C)c1ccc(Nc2ccc(Nc3ccc(N(C)C(C)=O)cc3)c3c2C(=O)c2ccccc2C3=O)cc1', 'growth', '79% (inactive)'),
  ('ClCCOCCn1cnc2c(Cl)nc(Cl)nc21', 'growth', '52.3% (inactive)'),
  ('COc1cc2c(cc1OCCCN1CCN(c3ncnc4ccccc34)CC1)N=CC1CCCN1C2=O (stereo unspecified)', 'growth', '-95.7% (active)'),
  ('COc1ccc2c(c1)C(=O)c1c-2c(=O)n(CCCN(C)C)c2cc(OC)c(OC)cc12', 'growth', '86.8% (inactive)'),
  ('Nc1ccc2c(c1)C1(CCC2)NC(=O)NC1=O (stereo unspecified)', 'growth', '98.6% (inactive)'),
  ('O=C(Nc1cccc(-n2cc(-c3ccncc3)c(-c3ccc(O)c(Cl)c3)n2)c1)Nc1cccc(C(F)(F)F)c1', 'growth', '-49% (active)'),
  ('CS(=O)(=O)Nc1ccc(Nc2c3ccccc3nc3cc(N)ccc23)cc1', 'growth', '5.37% (active)'),
  ('CN(C)CCOc1nc2ccccc2c2c1-c1ccc(Cl)cc1C2=O', 'growth', '-91.6% (active)'),
  ('C(CCCC1=NCCO1)CCCC1=NCCO1', 'growth', '99.7% (inactive)'),
  ('O=[N+]([O-])c1ccc(Oc2cccnc2)c([N+](=O)[O-])c1', 'growth', '79.1% (inactive)'),
  ('Cc1cc(N(CCCNc2ccnc3cc(Cl)ccc23)Cc2cccs2)nc(Cl)n1', 'growth', '-14.9% (active)'),
  ('CN(C)c1ccc(Cc2ccc(N(C)C)cc2Cl)c(Cl)c1', 'growth', '91.9% (inactive)'),
  ('CCOC(=O)N1C/C(=C/c2ccc(Cl)cc2)C(=O)/C(=C/c2ccc(Cl)cc2)C1', 'growth', '88.1% (inactive)'),
  ('c1ccc(CNc2ncnc3scc(-c4cccs4)c23)nc1', 'growth', '14.8% (inactive)');
